Exercise: state measured Percent Effect for each of the molecules provided.
system tested: Protein translocase subunit SecA (Escherichia coli (strain K12)) (UniProt P10408)
Sequence (P10408 whole entry): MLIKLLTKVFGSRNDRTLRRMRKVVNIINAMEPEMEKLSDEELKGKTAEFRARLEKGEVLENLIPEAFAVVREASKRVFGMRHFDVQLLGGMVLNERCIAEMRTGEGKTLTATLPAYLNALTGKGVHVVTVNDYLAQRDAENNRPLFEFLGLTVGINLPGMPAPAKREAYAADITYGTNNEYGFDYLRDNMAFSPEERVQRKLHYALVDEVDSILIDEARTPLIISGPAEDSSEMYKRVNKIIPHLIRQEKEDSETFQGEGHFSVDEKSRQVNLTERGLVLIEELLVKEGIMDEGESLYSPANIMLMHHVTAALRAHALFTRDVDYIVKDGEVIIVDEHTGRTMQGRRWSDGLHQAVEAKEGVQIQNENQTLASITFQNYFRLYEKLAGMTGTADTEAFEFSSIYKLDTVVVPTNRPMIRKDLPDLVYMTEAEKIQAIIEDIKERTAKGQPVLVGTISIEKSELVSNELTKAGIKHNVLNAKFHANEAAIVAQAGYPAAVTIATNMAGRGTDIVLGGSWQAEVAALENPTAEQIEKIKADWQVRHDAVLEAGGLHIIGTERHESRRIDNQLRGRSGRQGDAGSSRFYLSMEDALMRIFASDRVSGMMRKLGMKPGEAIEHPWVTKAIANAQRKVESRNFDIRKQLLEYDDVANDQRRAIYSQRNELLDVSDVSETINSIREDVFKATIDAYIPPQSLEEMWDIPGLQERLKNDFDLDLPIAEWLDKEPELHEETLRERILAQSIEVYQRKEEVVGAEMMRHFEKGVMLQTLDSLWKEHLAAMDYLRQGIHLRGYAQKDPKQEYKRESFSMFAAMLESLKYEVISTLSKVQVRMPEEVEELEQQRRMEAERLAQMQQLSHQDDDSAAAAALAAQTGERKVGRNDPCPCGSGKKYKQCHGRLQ
test protocol: Assay to Identify E. coli SecA ATPase Inhibitors
Assay type: functional
Set-up: scale not given: direction of the effect not stated beside the values
assay context: 30 µM
Entries with a potency or affinity are not part of this list.
Your answer is read as %, so omit the unit and give the number.

**Q:** Field request: Percent Effect | item: `CC(C)N(C)Cc1nnc2n1CCN(Cc1ccncc1)CC2`
**A:** -1.23

**Q:** Try `CCn1ccnc1CN1CCN(CC(=O)NC(=O)NC2CC2)CC1` next.
**A:** -0.559

**Q:** Thanks! And `CC(C)c1nc(CN(C)CC2CCN(CCO)CC2)no1` ?
**A:** -2.78

**Q:** Same thing, different molecule: Cn1ccc(C(=O)NC2CCC23CCN(C(=O)N2CCCC2)CC3)c1 (stereo not given)
**A:** -3.06

**Q:** // same read-out, input: c1ccc2oc(CCCN3CCCC3Cn3cncn3)nc2c1 (stereo not given)
**A:** -1.49

**Q:** `CC(=O)NCC1CCN(C(=O)c2csc(-c3ccc(C)cc3C)n2)CC1` , same question.
**A:** -3.29

**Q:** Query CCN1CC(C(=O)N(C)Cc2ccon2)CC1=O (stereo not given) next
**A:** -8.65

**Q:** Repeat with CC(C)n1ccnc1C1CCCN(c2ccnc3ccccc23)C1 (stereo not given)
**A:** -5.45

**Q:** `c1cc(CNCc2ccnc(N3CCOCC3)c2)c2c(c1)OCCO2` ?
**A:** -3.35

**Q:** Further, for O=C(NCc1cccnc1)C1=NOC2(CCN(S(=O)(=O)C3CC3)C2)C1 (stereo not given) ?
**A:** -5.43

**Q:** Now give it for `O=C(Cc1ccsc1)N1CCn2cc(CN3CCCC3)nc2C1` too.
**A:** -1.1

**Q:** Now the molecule CN1CC(=O)N(c2cccc(F)c2)CC12CCNC2 (stereo not given)
**A:** -5.9

**Q:** Next record, please: `Cc1nccn1-c1cc(CNC(=O)C(C)(C)C)ccn1`
**A:** -0.152

**Q:** Same for Cc1nc(NC2CCCC2)cc(C2CCN2C(=O)c2cccnc2)n1 (stereo not given)
**A:** -4.83

**Q:** Now the same for CCn1nnc2c1C(COC)CN(C(=O)Cc1cccs1)C2 (stereo not given)
**A:** -0.417

**Q:** // same read-out, input: CNC(=O)c1ccc(C2CN(C(=O)c3cncs3)CCO2)nc1 (stereo not given)
**A:** -2.48

**Q:** What about this molecule? Cc1n[nH]c(C2CN(C(=O)CCc3ccsc3)CCO2)n1 (stereo not given)
**A:** -6.4

**Q:** Same question, `Cc1ccc(NC(=O)Cn2cc(I)cn2)cc1` this time
**A:** -4.63

**Q:** Query O=C(NC1CCS(=O)(=O)C1)c1sccc1-c1ccc(F)cc1 (stereo not given) next
**A:** -6.43

**Q:** Quick one: `CC(C)c1nnc2n1CCN(Cc1csc(CC(=O)N(C)C)n1)C2`
**A:** 2.63

**Q:** CC(C)c1nn(C)c(N2CCOCC2)c1CNC(C)c1cccs1 (stereo not given) , same question.
**A:** -3.9

**Q:** Next entry: CCCc1n[nH]c(C2CN(CCCS(C)(=O)=O)CCO2)n1 (stereo not given)
**A:** -5.31

**Q:** What about `O=C1COc2cc(C(=O)NS(=O)(=O)c3ccccc3F)ccc2N1` ?
**A:** -1.86

**Q:** // next record Cn1cc(C2CCCN2Cc2csc(C(C)(C)C)n2)cn1 (stereo not given)
**A:** -8.01

**Q:** Same lookup for COc1cc(CNC2CCc3nc(C(C)C)nn3C2)cc2c1OCO2 (stereo not given) , please.
**A:** -3.28
